The following compounds have recorded pIC50 on 72 kDa type IV collagenase (Mus musculus).
Sequence (P33434 whole entry): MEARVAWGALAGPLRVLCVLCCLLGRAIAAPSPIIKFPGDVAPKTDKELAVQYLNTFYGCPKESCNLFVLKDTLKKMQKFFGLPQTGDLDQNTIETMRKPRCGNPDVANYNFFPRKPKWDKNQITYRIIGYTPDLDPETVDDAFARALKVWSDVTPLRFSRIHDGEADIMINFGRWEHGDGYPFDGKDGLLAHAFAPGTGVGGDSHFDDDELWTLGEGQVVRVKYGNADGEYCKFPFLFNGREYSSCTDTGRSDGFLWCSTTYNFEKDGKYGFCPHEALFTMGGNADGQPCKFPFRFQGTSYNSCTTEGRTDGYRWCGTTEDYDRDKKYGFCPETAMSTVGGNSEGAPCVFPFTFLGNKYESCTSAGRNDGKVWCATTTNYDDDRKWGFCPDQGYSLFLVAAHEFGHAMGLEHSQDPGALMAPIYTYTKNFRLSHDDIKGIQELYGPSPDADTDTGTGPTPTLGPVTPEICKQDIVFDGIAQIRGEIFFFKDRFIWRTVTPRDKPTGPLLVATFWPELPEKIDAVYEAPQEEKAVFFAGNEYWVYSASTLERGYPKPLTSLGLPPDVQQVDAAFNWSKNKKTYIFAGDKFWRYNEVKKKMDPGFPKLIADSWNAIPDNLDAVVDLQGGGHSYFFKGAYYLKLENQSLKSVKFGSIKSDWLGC
pIC50: −log10 of the molar value.
Recorded endpoint: pIC50

- Compound: "COc1ccc(S(=O)(=O)N(Cc2cccnc2)[C@@H](C(=O)NO)C(C)C)cc1 [CGS-27023A]"
  Quantitative readout: 7.82
- Compound: "CC(C)CN([C@@H](CCSCc1ccccc1)C(=O)NO)S(=O)(=O)c1ccc(-c2ccccc2)cc1"
  Quantitative readout: 8.39
- Compound: "COc1ccc(S(=O)(=O)N(CC(=O)NC(c2ccccc2)c2ccccc2)[C@H](CCSCc2ccccc2)C(=O)NO)cc1"
  Quantitative readout: 8.64
